test: Toxicity liver stage against HepG2, at 10uM; format: cell-based; parameters: test concentration 10 uM, cell line HepG2-A16-CD81EGFP; details: human, HepG2-A16-CD81EGFP cells; read-out: INHIBITION
measurement.type: cytotoxicity at 10 µM (%)
Numbers only, in %.

compound="Cc1ccc(C(=O)N2CCCC(C(=O)N3CCCCC3)C2)c(O)c1 (stereo not drawn)" unit_abbrev=% data_value=-7.52

For every record below, what is its cytotoxicity at 10 µM?
1. Cn1cc([C@@H]2CN(S(=O)(=O)c3cccnc3)C[C@H]2N)c2ccncc21
2. Cc1ncsc1C(=O)NCCn1nc(C2CCNC2)c2cccnc21 (stereo not drawn)
3. CC(C)n1ccnc1C1CCN(C(=O)c2ccccn2)CC1
4. O=C(NCCn1ccnc1)N1CCCN(Cc2cccs2)CC1
5. O=C1C[C@H]2[C@@H](CCN2C(=O)Cc2cccs2)N1CC1CC1
6. O=C(c1csc(I)c1)N1CCc2c(ncn2C2CC2)C1
7. CC(C)(C)c1noc(CN2CCCC(CNS(N)(=O)=O)C2)n1 (stereo not drawn)

Response line:
1: -0.57; 2: -0.98; 3: -2.85; 4: -29.7; 5: 3.2; 6: 7.21; 7: 1.3

Give cytotoxicity at 10 µM for all compounds that follow.
1. Cc1ccc(N(Cc2ccco2)C(=O)Cc2cc(=O)n(C)[nH]2)cc1
2. Cc1noc([C@@H]2C[C@H]3CN(Cc4scnc4C)C[C@H]3O2)n1

Response line:
-152
-136

For every listed record, write down its cytotoxicity at 10 µM.
1. COc1cc(-c2n[nH]c(CN)n2)cc(OC)c1OC
2. O=C(NCc1cccc(F)c1)N1CCc2ncnc(NC3CC3)c2CC1
3. OC1(CN2CCCC2)COCCN(c2nccs2)C1 (stereo not drawn)

Response line:
1. 2.45
2. -105
3. -7.64
